- testTarget: UniProtKB P22894
- Sequence (P22894 101-467): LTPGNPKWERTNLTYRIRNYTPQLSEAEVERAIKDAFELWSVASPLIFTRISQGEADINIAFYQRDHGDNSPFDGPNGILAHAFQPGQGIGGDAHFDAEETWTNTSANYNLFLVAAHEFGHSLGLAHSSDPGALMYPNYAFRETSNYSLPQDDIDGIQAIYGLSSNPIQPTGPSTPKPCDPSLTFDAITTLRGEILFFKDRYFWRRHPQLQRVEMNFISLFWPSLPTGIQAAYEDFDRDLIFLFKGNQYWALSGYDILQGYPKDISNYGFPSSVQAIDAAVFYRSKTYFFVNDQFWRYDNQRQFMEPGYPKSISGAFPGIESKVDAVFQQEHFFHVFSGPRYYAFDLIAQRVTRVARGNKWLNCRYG
- assaySummary: Ki determination with fluorogenic synthetic substrates, recombinant MMP-8
- runConditions: Tris/50 mM HCl buffer, pH 6.8, 10 mM CaCl2, 25° C.; read-out: affinity constant Ki, MMP-8 HNC
Task for the reader: assign each of the following compounds its reported pKi.
Numbers only, as −log10 of the molar value.

* CC(C)CC(CP(=O)(O)C(Cc1ccccc1)NC(=O)OCc1ccccc1)C(=O)NC(Cc1c[nH]c2ccccc12)C(N)=O (stereo not shown) [Compound 13] | 7.40
* COc1ccc(CSCC(CP(=O)(O)C(Cc2ccccc2)NC(=O)OCc2ccccc2)C(=O)NC(Cc2c[nH]c3ccccc23)C(N)=O)cc1 (stereo not shown) [Compound 18] | 9.15
* NC(=O)C(Cc1c[nH]c2ccccc12)NC(=O)C(COCc1ccccc1)CP(=O)(O)C(Cc1ccccc1)NC(=O)OCc1ccccc1 (stereo not shown) [Compound 17] | 7.70
* NC(=O)C(Cc1c[nH]c2ccccc12)NC(=O)C(CCCc1ccccc1)CP(=O)(O)C(Cc1ccccc1)NC(=O)c1cc2cc(Cl)cc(Cl)c2oc1=O (stereo not shown) [Compound 33] | 7.77
* CC(NC(=O)OCc1ccccc1)P(=O)(O)CC(COCc1ccccc1)C(=O)NC(Cc1c[nH]c2ccccc12)C(N)=O (stereo not shown) [Compound 10] | 7.72

State recorded pKi for all listed compounds.
1. NC(=O)C(Cc1c[nH]c2ccccc12)NC(=O)C(CCc1ccccc1)CP(=O)(O)C(Cc1ccccc1)NC(=O)OCc1ccccc1 (stereo not shown) [Compound 14]
2. CC(NC(=O)OCc1ccccc1)C(=O)NC(Cc1ccccc1)P(=O)(O)CC(CCCc1ccccc1)C(=O)NC(Cc1c[nH]c2ccccc12)C(N)=O (stereo not shown) [Compound 34]
3. CC(=O)NC(Cc1ccccc1)P(=O)(O)CC(CCCc1ccccc1)C(=O)NC(Cc1c[nH]c2ccccc12)C(N)=O (stereo not shown) [Compound 25]
4. NC(=O)C(Cc1c[nH]c2ccccc12)NC(=O)C(CCCc1ccccc1)CP(=O)(O)C(Cc1ccccc1)NC(=O)OCc1ccccc1 (single isomer, unassigned) [Compound 15 R I, ZPheΨ(PO2CpH2)pPheTrpNH2]

1: 7.35; 2: 8.26; 3: 8.46; 4: 7.80

---

- testTarget: MMP-11 (stromelysin-3, mST3) (Mus musculus, UniProt Q02853)
- Sequence (Q02853 102-492): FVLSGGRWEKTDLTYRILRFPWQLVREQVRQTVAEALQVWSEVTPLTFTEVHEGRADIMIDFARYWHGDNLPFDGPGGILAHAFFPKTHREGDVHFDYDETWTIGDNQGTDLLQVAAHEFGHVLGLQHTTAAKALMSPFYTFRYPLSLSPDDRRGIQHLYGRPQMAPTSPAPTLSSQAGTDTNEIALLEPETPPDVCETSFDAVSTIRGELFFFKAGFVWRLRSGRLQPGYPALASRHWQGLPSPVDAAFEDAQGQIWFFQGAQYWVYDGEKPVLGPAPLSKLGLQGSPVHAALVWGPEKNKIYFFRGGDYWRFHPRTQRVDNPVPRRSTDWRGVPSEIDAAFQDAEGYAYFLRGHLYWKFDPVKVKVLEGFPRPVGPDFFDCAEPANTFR
- assaySummary: Ki determination with fluorogenic synthetic substrates, recombinant MMP-11
- runConditions: Tris/50 mM HCl buffer, pH 6.8, 10 mM CaCl2, 25° C.; read-out: affinity constant Ki, MMP-11 mST3
- Experimental: The MMPs used were produced in recombinant form, in an E. coli expression system, and then purified using different types of chromatographies. Apart from stromelysin-3 (MMP-11), the MMPs produces correspond to human sequences. […] The activity of each MMP was determined using two fluorogenic synthetic substrates. The cutoff of said substrates, which generates a fluorescent signal proportional to the quantity of split substrate, enables a precise determination of the kinetic parameters. […]
Consider the following compounds; for each one, report its pKi.
One number for each entry, as −log10 of the molar value.

Example entries begin here.
• NC(=O)C(Cc1c[nH]c2ccccc12)NC(=O)C(CCCc1ccccc1)CP(=O)(O)C(Cc1ccccc1)NC(=O)COCc1ccccc1 (stereo not drawn) = 8.30
• CC(NC(=O)OCc1ccccc1)P(=O)(O)CC(CCc1ccccc1)C(=O)NC(Cc1c[nH]c2ccccc12)C(N)=O (stereo not drawn) = 7.29
• NC(=O)C(Cc1c[nH]c2ccccc12)NC(=O)C(CCCc1ccccc1)CP(=O)(O)C(Cc1ccccc1)NC(=O)CNc1cccc(Cl)c1 (stereo not drawn) = 8.42

Batch request: pKi per item, same order as input.
1. NC(=O)C(Cc1c[nH]c2ccccc12)NC(=O)C(CCCc1ccccc1)CP(=O)(O)C(Cc1ccccc1)NC(=O)CNc1ccccc1 (stereo not drawn)
2. NC(=O)C(Cc1c[nH]c2ccccc12)NC(=O)C(CCCc1ccccc1)CP(=O)(O)C(Cc1ccccc1)NC(=O)CNc1cc(Cl)ccc1O (stereo not drawn)
3. CC(NC(=O)OCc1ccccc1)P(=O)(O)CC(COCc1ccccc1)C(=O)NC(Cc1c[nH]c2ccccc12)C(N)=O (stereo not drawn)

[7.82, 8.00, 6.76]
